experimental_system: D(2) dopamine receptor (Homo sapiens, UniProt P14416)
Sequence (P14416 whole entry): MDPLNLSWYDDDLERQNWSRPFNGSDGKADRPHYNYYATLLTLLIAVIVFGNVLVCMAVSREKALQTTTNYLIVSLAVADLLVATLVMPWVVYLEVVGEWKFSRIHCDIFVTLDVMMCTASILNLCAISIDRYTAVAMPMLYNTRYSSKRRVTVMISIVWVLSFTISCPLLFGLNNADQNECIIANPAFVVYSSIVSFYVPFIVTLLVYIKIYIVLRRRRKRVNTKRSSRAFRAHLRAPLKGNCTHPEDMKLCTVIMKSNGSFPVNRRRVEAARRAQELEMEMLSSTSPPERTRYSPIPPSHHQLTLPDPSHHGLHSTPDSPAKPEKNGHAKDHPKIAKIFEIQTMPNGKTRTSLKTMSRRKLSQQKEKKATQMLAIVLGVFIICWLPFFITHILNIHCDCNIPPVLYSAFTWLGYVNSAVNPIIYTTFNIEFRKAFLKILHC
measured_metric: Ki (nM)

* CN1CCc2cc(-c3ccccc3)cc3c2[C@H]1Cc1ccc(O)c(O)c1-3 | 88

----------
experimental_system: D(2) dopamine receptor (Rattus norvegicus, UniProt P61169)
Sequence (P61169 whole entry): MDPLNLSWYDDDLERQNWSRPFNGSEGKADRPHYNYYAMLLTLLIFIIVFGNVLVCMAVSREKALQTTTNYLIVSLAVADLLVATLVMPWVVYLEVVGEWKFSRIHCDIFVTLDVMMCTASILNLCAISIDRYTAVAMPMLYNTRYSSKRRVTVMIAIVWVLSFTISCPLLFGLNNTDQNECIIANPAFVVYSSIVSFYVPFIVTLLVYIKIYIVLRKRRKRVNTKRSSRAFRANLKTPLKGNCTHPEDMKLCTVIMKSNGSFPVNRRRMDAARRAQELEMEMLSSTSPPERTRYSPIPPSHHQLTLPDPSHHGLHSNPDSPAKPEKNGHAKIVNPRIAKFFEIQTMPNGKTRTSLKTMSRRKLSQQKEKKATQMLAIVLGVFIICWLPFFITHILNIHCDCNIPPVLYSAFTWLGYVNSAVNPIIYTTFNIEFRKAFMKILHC
measurement_protocol: Agonist activity at rat dopamine D2(short) receptor expressed in CHOK1 cells by [35S]GTPgammaS binding assay
So basically, if EC50 comes in under 300 nM it's yes, and if it's 300 nM or more it's no.

- CCCCOc1cc2c3c(c1)-c1c(ccc(O)c1O)C[C@H]3N(C)CC2: yes
- CCCOc1cc2c3c(c1)-c1c(ccc(O)c1O)C[C@H]3N(C)CC2: yes
- CN1CCc2cc(OCCO)cc3c2[C@H]1Cc1ccc(O)c(O)c1-3: no
- COc1cc2c3c(c1)-c1c(ccc(O)c1O)CC3N(C)CC2 (stereo not drawn): yes
- CN1CCc2cc(OCCOCCOc3cc4c5c(c3)-c3c(ccc(O)c3O)C[C@H]5N(C)CC4)cc3c2[C@H]1Cc1ccc(O)c(O)c1-3: no
- CCOc1cc2c3c(c1)-c1c(ccc(O)c1O)C[C@H]3N(C)CC2: yes
- CN1CCc2cc(OCCOCCO)cc3c2[C@H]1Cc1ccc(O)c(O)c1-3: no

----------
experimental_system: UniProt:P61169
measurement_protocol: Agonist activity at rat dopamine D2(short) receptor expressed in CHOK1 cells by [35S]GTPgammaS binding assay relative to quinpirole
Assay type: functional, cell-based
experimental_parameters: CHO-K1
measured_metric: Efficacy

- CCCOc1cc2c3c(c1)-c1c(ccc(O)c1O)C[C@H]3N(C)CC2: 71%
- CCOc1cc2c3c(c1)-c1c(ccc(O)c1O)C[C@H]3N(C)CC2: 70%
- CN1CCc2cc(OCCOCCO)cc3c2[C@H]1Cc1ccc(O)c(O)c1-3: 58%
- CN1CCc2cc(OCCOc3cc4c5c(c3)-c3c(ccc(O)c3O)C[C@H]5N(C)CC4)cc3c2[C@H]1Cc1ccc(O)c(O)c1-3: 18%
- CN1CCc2cc(OCCO)cc3c2[C@H]1Cc1ccc(O)c(O)c1-3: 19%
- COc1cc2c3c(c1)-c1c(ccc(O)c1O)CC3N(C)CC2 (configuration not stated): 66%
- CCCCOc1cc2c3c(c1)-c1c(ccc(O)c1O)C[C@H]3N(C)CC2: 57%

----------
experimental_system: D(2) dopamine receptor (Rattus norvegicus)
measurement_protocol: Displacement of [3H]raclopride from rat dopamine D2(short) receptor expressed in CHOK1 cells
Type: cell-based, CHO-K1
pKi: −log10 of the molar value.
Rule: fulfilled for pKi not less than 7, not fulfilled for anything less.

- CN1CCc2cc(OCCO)cc3c2[C@H]1Cc1ccc(O)c(O)c1-3: not fulfilled
- CN1CCc2cc(OCCOCCOc3cc4c5c(c3)-c3c(ccc(O)c3O)C[C@H]5N(C)CC4)cc3c2[C@H]1Cc1ccc(O)c(O)c1-3: not fulfilled
- CN1CCc2cc(OCCOc3cc4c5c(c3)-c3c(ccc(O)c3O)C[C@H]5N(C)CC4)cc3c2[C@H]1Cc1ccc(O)c(O)c1-3: not fulfilled
- CCOc1cc2c3c(c1)-c1c(ccc(O)c1O)C[C@H]3N(C)CC2: fulfilled
- CN1CCc2cc(OCCOCCO)cc3c2[C@H]1Cc1ccc(O)c(O)c1-3: not fulfilled
- CCCCOc1cc2c3c(c1)-c1c(ccc(O)c1O)C[C@H]3N(C)CC2: fulfilled

----------
experimental_system: D(1A) dopamine receptor (Mus musculus, UniProt Q61616)
Sequence (Q61616 whole entry): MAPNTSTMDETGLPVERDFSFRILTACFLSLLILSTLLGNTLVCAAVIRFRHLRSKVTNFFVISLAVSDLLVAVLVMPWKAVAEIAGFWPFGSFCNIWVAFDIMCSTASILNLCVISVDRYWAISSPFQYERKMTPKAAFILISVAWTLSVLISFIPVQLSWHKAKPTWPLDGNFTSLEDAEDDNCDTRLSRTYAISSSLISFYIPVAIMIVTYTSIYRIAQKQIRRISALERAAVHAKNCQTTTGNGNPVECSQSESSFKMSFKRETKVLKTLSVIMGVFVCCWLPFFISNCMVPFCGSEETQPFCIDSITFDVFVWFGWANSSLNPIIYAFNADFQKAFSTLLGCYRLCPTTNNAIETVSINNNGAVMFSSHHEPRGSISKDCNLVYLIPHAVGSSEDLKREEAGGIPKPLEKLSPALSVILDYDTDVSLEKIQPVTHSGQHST
measurement_protocol: Displacement of [3H]SCH23390 from dopamine D1 receptor in mouse Ltk- fibroblast cells
measured_metric: Ki (µM)

• CCCCOc1cc2c3c(c1)-c1c(ccc(O)c1O)C[C@H]3N(C)CC2 = 2.1
• CN1CCc2cc(OCCO)cc3c2[C@H]1Cc1ccc(O)c(O)c1-3 = 5.3
• CN1CCc2cc(OCCOc3cc4c5c(c3)-c3c(ccc(O)c3O)C[C@H]5N(C)CC4)cc3c2[C@H]1Cc1ccc(O)c(O)c1-3 = 5.2
• CCOc1cc2c3c(c1)-c1c(ccc(O)c1O)C[C@H]3N(C)CC2 = 2.9
• COc1cc2c3c(c1)-c1c(ccc(O)c1O)CC3N(C)CC2 (stereo not drawn) = 2.6
• CCCOc1cc2c3c(c1)-c1c(ccc(O)c1O)C[C@H]3N(C)CC2 = 3.5
• CN1CCc2cc(OCCOCCO)cc3c2[C@H]1Cc1ccc(O)c(O)c1-3 = 7.6
